- EXPERIMENTAL TARGET: human recombinant HDAC6 (Homo sapiens)
- Construct: purchased Calbiochem 382180
- Sequence (Q9UBN7 whole entry): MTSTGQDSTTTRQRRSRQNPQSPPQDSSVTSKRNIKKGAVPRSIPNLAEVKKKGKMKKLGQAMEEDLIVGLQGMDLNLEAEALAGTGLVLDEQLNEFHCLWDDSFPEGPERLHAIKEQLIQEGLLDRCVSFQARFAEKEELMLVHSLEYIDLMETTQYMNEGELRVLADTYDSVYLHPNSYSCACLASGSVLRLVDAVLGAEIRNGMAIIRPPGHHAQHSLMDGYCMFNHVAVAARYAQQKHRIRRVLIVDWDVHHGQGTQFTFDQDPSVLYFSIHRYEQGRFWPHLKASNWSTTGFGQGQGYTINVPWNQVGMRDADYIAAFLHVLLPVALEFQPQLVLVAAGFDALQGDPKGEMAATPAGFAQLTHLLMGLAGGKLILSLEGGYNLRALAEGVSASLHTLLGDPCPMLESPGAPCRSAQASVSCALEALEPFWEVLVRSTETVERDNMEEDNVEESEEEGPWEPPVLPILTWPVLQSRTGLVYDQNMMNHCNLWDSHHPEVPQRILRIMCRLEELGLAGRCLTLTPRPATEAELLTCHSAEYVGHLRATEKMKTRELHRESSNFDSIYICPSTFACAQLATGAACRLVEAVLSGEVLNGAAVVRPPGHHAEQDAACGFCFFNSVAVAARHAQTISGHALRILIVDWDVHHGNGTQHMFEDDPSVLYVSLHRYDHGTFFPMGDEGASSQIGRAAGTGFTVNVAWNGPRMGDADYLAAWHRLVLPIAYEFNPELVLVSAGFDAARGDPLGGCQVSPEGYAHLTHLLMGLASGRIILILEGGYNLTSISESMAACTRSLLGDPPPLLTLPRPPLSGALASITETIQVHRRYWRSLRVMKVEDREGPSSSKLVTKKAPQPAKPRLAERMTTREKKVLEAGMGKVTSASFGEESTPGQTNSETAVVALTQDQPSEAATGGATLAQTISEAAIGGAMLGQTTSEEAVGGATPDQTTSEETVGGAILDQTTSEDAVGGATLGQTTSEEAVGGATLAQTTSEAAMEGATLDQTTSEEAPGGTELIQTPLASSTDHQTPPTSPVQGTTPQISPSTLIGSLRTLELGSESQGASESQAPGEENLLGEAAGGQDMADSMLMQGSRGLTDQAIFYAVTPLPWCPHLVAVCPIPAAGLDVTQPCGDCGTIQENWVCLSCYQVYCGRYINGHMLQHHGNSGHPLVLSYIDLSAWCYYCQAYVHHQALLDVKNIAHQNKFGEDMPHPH
- ASSAY EXPLANATION: HDAC6 enzyme activity inhibition assay (in vitro, fluorimetric)
- Type: biochemical
- REPORTED CONDITIONS: HDAC6 selectivity over HDAC1
OUTCOME MEASURE: HDAC6 selectivity (fold)

Answered cases to consult:
{"columns": ["SMILES STR", "HDAC6 selectivity (fold)"],
 "data": [
  ["C[C@@H]1CN(Cc2ccc(C(=O)NO)cc2)C[C@H](C)N1C(=O)c1ccc(CN2CCN(S(C)(=O)=O)CC2)cc1", 18],
  ["C[C@@H]1CN(S(=O)(=O)c2ccccc2)C[C@H](C)N1Cc1ccc(C(=O)NO)cc1", 27],
  ["C[C@@H]1CN(Cc2ccc(C(=O)NO)cc2)C[C@H](C)N1C(=O)c1ccc(CN2CC[C@@H](F)C2)cc1", 20]
]}

1. C[C@@H]1CN(Cc2ccc(C(=O)NO)cc2)C[C@H](C)N1C(=O)c1ccc(CN2CCOCC2)cc1
2. C[C@@H]1CN(Cc2ccc(C3=CCC(C)(C)CC3)cc2)C[C@H](C)N1Cc1ccc(C(=O)NO)cc1
3. C[C@@H]1CN(Cc2ccc(C(=O)NO)cc2)C[C@H](C)N1C(=O)c1cccc(CN2CCN(C)CC2)c1
4. C[C@@H]1CN(Cc2ccc(C(=O)NO)cc2)C[C@H](C)N1Cc1cccc(F)c1
[Q] Which order do these items take when sorted by rising HDAC6 selectivity (fold)? List them. # output: labels, in the requested order
[A] 2, 1, 4, 3

// provenance: patent US10287255B2
